# TARGET_OF_ASSAY: Genome polyprotein (dengue virus type 2)
# Type: functional, Thailand/16681/1984
Entries and their measured IC50 follow.

N#CCCNC(=O)[C@H](Nc1ccc2c(c1)CNC2)c1cc(Cl)cc(C2CC2)c1    > 99.5 µM
Cc1ncccc1-c1ccc([C@@H](NC(=O)OCc2ccccc2)C(=O)Nc2cccc(CN)c2)cc1    > 99.5 µM
CCOc1cccc(-c2cccc(NC(=O)c3cc(C4CC4)n(C)c3C)n2)c1    > 99.5 µM
O=C(Nc1cc([C@H]2CCOC2)ccn1)c1cc(F)c2[nH]ccc2c1    > 99.5 µM
NCc1cccc(NC(=O)c2cc(C(F)(F)F)ccc2SC2CCCC2)c1    > 99.5 µM

Param item = NCc1cccc(NC(=O)c2cc(Cl)cc(Cl)c2OCc2ccccc2)c1 ; retrieve measured IC50. 44.7 µM

Any idea what its IC50 is? The molecule is CC[C@H]1CN2CCC[C@H]2CN1c1nc2ccccc2n(CC)c1=O > 99.5 µM

* * *

# TARGET_OF_ASSAY: Genome polyprotein (dengue virus type 2, UniProt P29990)
# Sequence (P29990 1346-1475 limits assumed): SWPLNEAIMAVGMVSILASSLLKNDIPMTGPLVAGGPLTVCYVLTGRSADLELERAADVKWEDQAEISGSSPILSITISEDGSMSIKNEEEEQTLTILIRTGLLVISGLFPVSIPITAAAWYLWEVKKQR
# Sequence (P29990 1476-2093 limits assumed): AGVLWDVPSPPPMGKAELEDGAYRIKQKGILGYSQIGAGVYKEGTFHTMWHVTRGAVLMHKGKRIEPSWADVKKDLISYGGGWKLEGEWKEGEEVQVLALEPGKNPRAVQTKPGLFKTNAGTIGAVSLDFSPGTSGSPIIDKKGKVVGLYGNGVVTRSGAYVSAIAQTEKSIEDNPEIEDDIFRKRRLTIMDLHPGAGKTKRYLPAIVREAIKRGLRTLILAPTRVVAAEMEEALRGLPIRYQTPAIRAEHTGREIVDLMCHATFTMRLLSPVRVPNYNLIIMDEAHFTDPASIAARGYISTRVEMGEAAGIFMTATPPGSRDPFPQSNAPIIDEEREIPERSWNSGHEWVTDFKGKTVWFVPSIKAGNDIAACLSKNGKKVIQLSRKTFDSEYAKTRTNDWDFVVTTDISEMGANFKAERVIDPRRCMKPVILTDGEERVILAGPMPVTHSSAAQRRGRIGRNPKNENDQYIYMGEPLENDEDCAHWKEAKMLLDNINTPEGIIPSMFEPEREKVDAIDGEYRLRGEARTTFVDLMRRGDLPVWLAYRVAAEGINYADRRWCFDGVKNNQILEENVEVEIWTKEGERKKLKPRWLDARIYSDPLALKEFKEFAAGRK
# Format: functional, Thailand/16681/1984
In this section we review reported IC50 values for a set of compounds.

Examples with their reported IC50 follow.
CC(C)(C)OC(=O)N1Cc2ccc(NC(=O)c3cc(Cl)cc4[nH]ncc34)cc2C1    > 99.5 µM
Cc1cc(C(=O)Nc2cccc(CN)c2)cc(O)n1    > 99.5 µM
C=CC[C@H]1NCc2cc(NC(=O)c3cc(F)cc4[nH]ncc34)ccc21    72.9 µM
O=C(NCC(F)F)[C@H](Nc1ccc2c(n1)CNC2)c1cc(Cl)cc(C2CC2)c1    > 296 µM
C#Cc1cc(Cl)cc(C(=O)Nc2ccc3c(c2)CNC3)c1    > 99.5 µM

Query (compound): Cc1ccc(NC(=O)c2cc(Cl)cc3[nH]ncc23)cc1CN ; field requested: IC50 > 99.5 µM

Which IC50 is reported for this compound? NC[C@H]1C[C@](F)(CNC(=O)c2cc(Cl)cc(NC(=O)OCc3ccccc3)c2)C1 > 99.5 µM

Returns the measured IC50 for the input compound. Input: CCc1cccc2c(CN3CCC(c4cscn4)CC3)c[nH]c12 > 99.5 µM

Form field: reported IC50 of c1ccc2c(CNC3CCN(Cc4cscn4)CC3)c[nH]c2c1 > 99.5 µM

What does the record list as IC50 for O=C(Nc1ccc2c(c1)OCO2)c1cc(Cl)cc2[nH]ncc12 ? > 99.5 µM

Find the recorded IC50 belonging to O=C(Nc1cc(Cl)cc(C(=O)Nc2ccc3c(c2)CNC3=O)c1)OCc1ccccc1 and report it. > 99.5 µM

* * *

Measured IC50, listed per entry for reference.
# TARGET_OF_ASSAY: UniProt:P29990
# Format: functional, Thailand/16681/1984

Example compounds with recorded IC50:
O=C1C[C@@H](CNC(=O)c2cc(Cl)ccc2NS(=O)(=O)c2ccc(Oc3ccccc3Cl)cc2)CN1    79.3 µM
CCN1CC[C@@H](COc2ccc([C@@H](NC(=O)OCc3ccccc3)C(=O)Nc3cccc(CN)c3)cc2)C1    > 99.5 µM
CC[C@H](Cc1nnn[nH]1)c1ccc(NC(=O)c2cc(Cl)cc(-n3cccc3)c2)cc1    26.4 µM
NCc1nc(CNC(=O)c2cc(Cl)cc(NC(=O)OCc3ccccc3)c2)cs1    > 99.5 µM
CCn1c(=O)c(N2CCC[C@H]2c2noc(C)n2)nc2ccccc21    > 99.5 µM

Which value of IC50 has been reported for CN1CCC[C@H]1COc1ccc([C@@H](NC(=O)OCc2ccccc2)C(=O)Nc2cccc(CN)c2)cc1 in the records? > 99.5 µM

Can you look up the measured IC50 of O=C(Nc1cc(Cl)cc(C(=O)Nc2ccc3c(c2)CNC3)c1)OCc1ccccc1 for me? > 99.5 µM

What value of IC50 has been recorded for this entry: O=C(Nc1cc(Cl)cc(C(=O)N[C@H](c2nn[nH]n2)C2CCNCC2)c1)OCc1ccccc1 > 99.5 µM

Look at this compound and give its reported IC50. C[C@@H](N)c1cccc(NC(=O)c2cc(Cl)cc(NC(=O)OCc3ccccc3)c2)c1 81 µM

Suppose we examine the compound CCn1ccnc(N2CC[C@@H](CC#N)C2)c1=O ; what IC50 value has been reported? > 99.5 µM

Request the reported IC50 associated with NCCc1ccc(NC(=O)c2cc(Cl)cc3[nH]ncc23)cc1 > 99.5 µM

Can you look up the measured IC50 of CCCCNC(=O)[C@H](Nc1ccc2c(c1)CNC2)c1cc(Cl)cc(C2CC2)c1 for me? > 99.5 µM

Please give the measured IC50 for this compound: CCn1ccnc(N2CC[C@@H](CO)C2)c1=O > 99.5 µM

Dear colleague, I am looking for the recorded IC50 of the following compound: NCc1ccc(I)c(NC(=O)c2cc(Cl)cc(NC(=O)OCc3ccccc3)c2)c1 52.1 µM
